# credit: the supplement of paper PMC5908809

Tested on: IMC-1 (IL-2 20 ng/mL)
Assay: drug sensitivity score (DSS) (DSS units); higher = more sensitive; extreme values may be limits of the assay
Details: 72 h
Each record here notes measured drug sensitivity score.
Please state the value as a number alone, without comment.

| compound | drug sensitivity score |
| --- | --- |
| O=C(/C=C\n1cnc(-c2cc(C(F)(F)F)cc(C(F)(F)F)c2)n1)NNc1cnccn1 [Selinexor] (max concentration tested 10000 nM) | 15.5 |
| Cc1cc(C(=O)NOCCO)c(Nc2ccc(I)cc2F)n(C)c1=O [AZD-8330] (max concentration tested 10000 nM) | 0 |
| COc1cc(F)c(F)c(Nc2ccc(I)cc2F)c1NS(=O)(=O)C1(C[C@H](O)CO)CC1 [Refametinib] (max concentration tested 10000 nM) | 2.67 |
| COC(=O)C[C@](O)(CCCC(C)(C)O)C(=O)O[C@@H]1C(OC)=C[C@]23CCCN2CCc2cc4c(cc2[C@H]13)OCO4 [Omacetaxine] (max concentration tested 10000 nM) | 30.1 |
| CC[C@]1(O)C[C@@H]2CN(CCc3c([nH]c4ccccc34)[C@@](C(=O)OC)(c3cc4c(cc3OC)N(C)[C@H]3[C@@](O)(C(=O)OC)[C@H](OC(C)=O)[C@]5(CC)C=CCN6CC[C@]43[C@@H]65)C2)C1 [Vinblastine] (max concentration tested 1000 nM) | 29.8 |

Lab note: measured drug sensitivity score of O=S(=O)(c1cccc2c(O)nccc12)N1CCCNCC1 [Hydroxyfasudil] (max concentration tested 37500 nM) was 0

Lab note: measured drug sensitivity score of Cc1cc(Nc2cc(CN3CCOCC3)c3nc(C)c(Cc4ccc(Cl)cc4F)n3n2)n[nH]1 [Gandotinib] (max concentration tested 10000 nM) was 10.4

---

Test system: DERL-7 (IL-2 2.5 ng/mL)
Assay: percent inhibition of viability; higher = more inhibition
Conditions: 72 h; 1000 nM
Each record here notes measured percent inhibition of viability.
A number alone suffices; assume %.

| molecule | reported_property | observed_result |
| --- | --- | --- |
| Cn1cnc2c(F)c(Nc3ccc(Br)cc3Cl)c(C(=O)NOCCO)cc21 [Selumetinib] (max concentration tested 10000 nM) | percent inhibition of viability | 38.2 |
| O=C(c1ccc(F)c(F)c1Nc1ccc(I)cc1F)N1CC(O)([C@@H]2CCCCN2)C1 [Cobimetinib] (max concentration tested 1000 nM) | percent inhibition of viability | 46.5 |
| CNC(=O)c1ccc(N2C(=S)N(c3ccc(C#N)c(C(F)(F)F)c3)C(=O)C2(C)C)cc1F [Enzalutamide] (max concentration tested 10000 nM) | percent inhibition of viability | -2.76 |

Turning now to a further record.
Lab note: measured percent inhibition of viability of COc1cc(O)c2c(c1)/C=C/C[C@H](O)[C@H](O)C(=O)/C=C\C[C@H](C)OC2=O [(5Z)-7-Oxozeaenol] (max concentration tested 10000 nM) was 66.3

---

Tested on: IMC-1 (IL-2 20 ng/mL)
Assay: percent inhibition of viability; higher = more inhibition
Details: 72 h; 10000 nM
reported_property: percent inhibition of viability

| compound | percent inhibition of viability |
| --- | --- |
| CC(=O)NCC(=O)N1[C@@H]2CC[C@H]1c1ccc(Nc3ncc(C(F)(F)F)c(NC4CCC4)n3)cc12 (max concentration tested 10000 nM) | 102% |
| O=C(/C=C\n1cnc(-c2cc(C(F)(F)F)cc(C(F)(F)F)c2)n1)NNc1cnccn1 [Selinexor] (max concentration tested 10000 nM) | 100% |
| CCc1c2c(nc3ccc(OC(=O)N4CCC(N5CCCCC5)CC4)cc13)-c1cc3c(c(=O)n1C2)COC(=O)[C@]3(O)CC [Irinotecan] (max concentration tested 10000 nM) | 99.6% |
| C=CC[C@@H]1/C=C(\C)C[C@H](C)C[C@H](OC)[C@H]2O[C@@](O)(C(=O)C(=O)N3CCCC[C@H]3C(=O)O[C@H](/C(C)=C/[C@@H]3CC[C@@H](O)[C@H](OC)C3)[C@H](C)[C@@H](O)CC1=O)[C@H](C)C[C@@H]2OC [Tacrolimus] (max concentration tested 10000 nM) | 23.3% |

Turning now to a further record.
Lab note: measured percent inhibition of viability of COc1cccc2c1c(O)c(C(=O)N(C)c1ccc(C(F)(F)F)cc1)c(=O)n2C [Tasquinimod] (max concentration tested 10000 nM) was 24.9%
